The origin of these recorded values is ChEMBL document CHEMBL1681740.

System: Plasma
Experiment: Plasma concentration in Sprague-Dawley rat at 10 mg/kg, po
Format: ADME, organism-based
Design: dose 10 mg/kg, route oral
Conditions: in vivo
property-measured: concentration (nM)

compound | result-units | concentration
O=C(O)c1cc(CN2CCc3cc(Cl)ccc3C2)c2ccccn2c1=O | nM | 4240

a = O=C(O)c1cc(CN2CCc3ccccc3C2c2ccncc2)c2ccccn2c1=O (centres undefined)
b = O=C(O)c1cc(CN2CCC(c3nc4ccccc4[nH]3)CC2)c2ccccn2c1=O
c = Cc1ccc(C2CCN(Cc3cc(C(=O)O)c(=O)n4ccccc34)CC2)cc1
Arrange the 3 compounds by rising concentration, starting with the smallest. Write out the labels following the order that was asked for.
b, c, a
